Source listed as ChEMBL document CHEMBL3433997.

Listed here: items and their measured inhibition.
Biological target: Solute carrier family 2, facilitated glucose transporter member 1 (Homo sapiens) (UniProt P11166)
Sequence (P11166 whole entry): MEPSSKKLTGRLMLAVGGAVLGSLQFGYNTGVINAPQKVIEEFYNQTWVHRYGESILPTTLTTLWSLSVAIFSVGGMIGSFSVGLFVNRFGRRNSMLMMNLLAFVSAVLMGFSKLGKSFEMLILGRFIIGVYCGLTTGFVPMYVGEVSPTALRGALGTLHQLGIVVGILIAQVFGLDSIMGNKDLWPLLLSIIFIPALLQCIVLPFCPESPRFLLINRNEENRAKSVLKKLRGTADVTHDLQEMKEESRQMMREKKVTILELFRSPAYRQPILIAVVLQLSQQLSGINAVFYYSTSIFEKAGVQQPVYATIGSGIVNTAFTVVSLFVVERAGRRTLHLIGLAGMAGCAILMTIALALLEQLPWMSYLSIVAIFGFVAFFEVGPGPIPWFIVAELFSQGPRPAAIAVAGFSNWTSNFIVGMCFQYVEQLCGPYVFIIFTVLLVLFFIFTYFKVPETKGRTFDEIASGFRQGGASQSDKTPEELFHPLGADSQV
Experiment: ST_JUDE_LEISH: Cytotoxicity at 2uM final concentration against transgenic Leishmania Mexicana promastigotes LmGLUT1 that are glucose transport deficient and complemented with the human glucose transporter GLUT1. Activity is measured by DNA content using SYBR green in vitro
Type: functional

[
  {
    "structureSmiles": "c1cc(CN2CCN(CCN3CCOCC3)CC2)cc(-c2cccc(-c3nc4ccccc4[nH]3)c2)c1",
    "inhibition / %": -0.34
  },
  {
    "structureSmiles": "COc1cccc(NC(=O)Nc2cc(-c3ccc4[nH]ncc4c3)cc3c2CNC3=O)c1",
    "inhibition / %": 2.19
  },
  {
    "structureSmiles": "CC1(C)NC(N)=NC(=N)N1OCc1nc(N)nc(Nc2ccccc2)n1",
    "inhibition / %": 5.43
  },
  {
    "structureSmiles": "O=C(/C=C/c1ccc(Cl)c(Cl)c1)N1CCC(CCCN2CCC(c3c[nH]c4ccccc34)CC2)CC1",
    "inhibition / %": 70.7
  },
  {
    "structureSmiles": "CSc1ccc(NC(=O)Nc2cc(C)nc3ccccc23)cc1Br",
    "inhibition / %": -2.43
  }
]
